- Tested on: Panc-1 cells
- measurement-description: CellTiter-Glo Luminescent Cell Viability Assay, Panc-1 as PDAC model
- Format: cell-based, human
- condition-details: Homo sapiens; Panc-1 cells, 72 h compound incubation, mean ± SD of at least three independent biological repeats
Counter-ions that a name gives are not always drawn.
metric-name: IC50 (µM)
Report only the number, with the unit µM understood.

So what's the measured IC50 for this one? CCCCCCCCC1(CCCCCCCC)O[C@@H]2[C@H](O1)[C@@H](CO)O[C@H]2n1cnc2c1ncn1ccnc21 [Compound 4b, Hydrochloride]
16.2

Note, next up: CCCCCCCC1(CCCCCCC)O[C@@H]2[C@H](O1)[C@@H](CO)O[C@H]2n1cnc2c1ncn1ccnc21.Cl [Compound 4a, Hydrochloride]
17.1

Note, next up: Cl.OC[C@H]1O[C@@H](n2cnc3c2ncn2ccnc32)[C@@H]2OC3(CCCCCCCCCCCCCC3)O[C@@H]21 [Compound 5, Hydrochloride]
23.1

Note, next up: CCCCCCCC1(CCCCCCC)O[C@@H]2[C@H](O1)[C@@H](CO)O[C@H]2n1cnc2c(N)ncnc21
14.6

----------
- measurement-description: logPOW determination, water/1-octanol distribution with UV/VIS readout
- Assay type: physicochemical
- condition-details: 1 h stirring, room temperature (23 °C), ratio of maximal UV absorbances
Structures can show the parent of a compound that is named as a salt.
Please go through the items and note down their logPOW (measured).

So what's the measured logPOW (measured) for this one? CCCCCCCC1(CCCCCCC)O[C@@H]2[C@H](O1)[C@@H](CO)O[C@H]2n1cnc2c1ncn1ccnc21.Cl
2.40

Note, next up: CCCCCCCCCCCCCC1(C)O[C@@H]2[C@H](O1)[C@@H](CO)O[C@H]2n1cnc2c(N)ncnc21.Cl (stereo partly drawn)
2.75

Note, next up: CCCCCCCC1(CCCCCCC)O[C@@H]2[C@H](O1)[C@@H](CO)O[C@H]2n1cnc2c(N)ncnc21
2.82

Note, next up: CCCCCCCCCCCCCC1(CC)O[C@@H]2[C@H](O1)[C@@H](CO)O[C@H]2n1cnc2c(N)ncnc21 (stereo partly drawn)
3.60

Note, next up: CCCCCCCCCCCCCC1(CC)O[C@@H]2[C@H](O1)[C@@H](CO)O[C@H]2n1cnc2c1ncn1ccnc21.Cl (stereo partly drawn)
2.29

Note, next up: Cl.OC[C@H]1O[C@@H](n2cnc3c2ncn2ccnc32)[C@@H]2OC3(CCCCCCCCCCCCCC3)O[C@@H]21
1.67

Note, next up: CCCCCCCCCCCCCC1(C)O[C@@H]2[C@H](O1)[C@@H](CO)O[C@H]2n1cnc2c(N)ncnc21 (stereo partly drawn)
2.83

Note, next up: CCCCCCCCC1(CCCCCCCC)O[C@@H]2[C@H](O1)[C@@H](CO)O[C@H]2n1cnc2c1ncn1ccnc21 [Compound 4b, Hydrochloride]
2.57

Note, next up: CCCCCCCCC1(CCCCCCCC)O[C@@H]2[C@H](O1)[C@@H](CO)O[C@H]2n1cnc2c(N)ncnc21
3.86
